Value source: paper PMC10646984

# measuredTarget: Gal-8 (Homo sapiens, UniProt O00214)
# Sequence (O00214 1-317): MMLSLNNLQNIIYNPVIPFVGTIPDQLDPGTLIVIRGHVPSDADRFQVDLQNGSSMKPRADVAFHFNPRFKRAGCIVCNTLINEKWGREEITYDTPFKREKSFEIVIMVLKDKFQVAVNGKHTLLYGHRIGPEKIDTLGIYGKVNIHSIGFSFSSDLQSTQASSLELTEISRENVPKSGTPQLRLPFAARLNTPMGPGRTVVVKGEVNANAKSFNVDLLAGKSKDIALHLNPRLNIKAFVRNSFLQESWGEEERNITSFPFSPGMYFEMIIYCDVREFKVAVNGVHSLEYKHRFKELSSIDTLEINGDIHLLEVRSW
endpoint: pIC50
Give bare numbers, as −log10 of the molar value.

Query block: // returns reported pIC50 for input OC[C@H]1O[C@@H](O[C@H]2[C@H](O)[C@@H](O)C(O)O[C@@H]2CO)[C@H](O)[C@@H](O)[C@H]1O (mixture of isomers) [lactose]
Result block: 2.77

---

# measuredTarget: Gal-9 (Homo sapiens, UniProt O00182, A222P/DEL149-219)
# Sequence (O00182 with tags, fused parts or gaps DEL149-219/A222P): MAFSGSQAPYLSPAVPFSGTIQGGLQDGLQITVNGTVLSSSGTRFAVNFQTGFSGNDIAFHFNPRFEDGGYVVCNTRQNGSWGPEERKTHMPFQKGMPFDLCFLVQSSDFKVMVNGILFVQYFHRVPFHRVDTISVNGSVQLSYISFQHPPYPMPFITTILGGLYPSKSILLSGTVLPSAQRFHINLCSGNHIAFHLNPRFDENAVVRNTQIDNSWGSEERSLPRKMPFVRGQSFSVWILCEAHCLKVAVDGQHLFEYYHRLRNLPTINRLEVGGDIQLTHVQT
# assayMethodText: competitive ELISA with immobilized asialofetuin (ASF), Gal-9
# protocolConditions: 1 μM Gal-9, immobilized ASF, DMSO co-solvent
endpoint: pIC50
Numbers only, as −log10 of the molar value.

Query block: // returns reported pIC50 for input OC[C@H]1O[C@@H](O[C@H]2[C@H](O)[C@@H](O)C(O)O[C@@H]2CO)[C@H](O)[C@@H](O)[C@H]1O (mixture of isomers) [lactose]
Result block: 2.87
